# Protocol: ATG_Ets_CIS: Attagene CIS-FACTORIAL HepG2 Assay for human Erythroblast Transformation Specific (ETS) (AID 2282941)
# Protocol conditions: HepG2 ETS cis-reporter transcription, actives raise or lower the signal
The source made the active and inactive calls. Rule for the calls: active = hit-call score of the fitted dose curve at least 0.9, where 1 is the maximum; inactive = score below 0.9.
Recorded endpoint: outcome

• CCCCCCC(C)OC(=O)COc1nc(F)c(Cl)c(N)c1Cl (stereo not drawn) = inactive
• CSC(=O)c1cccc2nnsc12 = inactive
• CCCOC(=O)NCCCN(C)C = inactive

====

# Read-out: Cytochrome P450 4A22 (Homo sapiens)
# Protocol: LTEA_HepaRG_CYP4A22: Life Technologies and Expression Analysis (LTEA) Assay for Cytochrome P450 4A22 (CYP4A22) using HepaRG (AID 2283495)
# Protocol conditions: mRNA level, 48 h; actives raise or lower the signal
Calls of active or inactive are those of the source. Rule for the calls: active = hit-call score of the fitted dose curve at least 0.9, where 1 is the maximum; inactive = score below 0.9.
Classes to choose from: active, inactive

* CCSC(=O)N(CC(C)C)CC(C)C | inactive
* CC(C)(C)[C@@H](O)[C@@H](Cc1ccc(Cl)cc1)n1cncn1 | active

Now for a further molecule.
What did this assay record as the result for CCC(C)OC(=O)N1CCCCC1CCO (stereo not drawn) ?
inactive

====

# Protocol: APR_HepG2_p53Act_72hr: Apredica 72-hour HepG2 Assay for p53 Activation (AID 2282923);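 note: average cellular p53 protein immunofluorescence intensity in HepG2 cells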
# Protocol conditions: high-content imaging, actives raise or lower the signal
Active and inactive are the calls of the source. Rule for the calls: active = hit-call score of the fitted dose curve at least 0.9, where 1 is the maximum; inactive = score below 0.9.
Classes to choose from: 1 for active, -1 for inactive

Worked set:
• CC(C)CCCCCCc1ccc(O)cc1 = 1
• C=CCOC(Cn1ccnc1)c1ccc(Cl)cc1Cl (configuration not stated) = -1
• CCOC(=O)COc1cc(-n2ncc(C(F)(F)F)c(C)c2=O)c(F)cc1Cl = -1
• O=C(O)C1(C(=O)Nc2ccc(Cl)cc2Cl)CC1 = -1
• CCCN(CCC)C(=O)SCC = -1

What did this assay record as the result for CN(C)C(=O)Nc1ccc(Cl)c(Cl)c1 ?
-1

What did this assay record as the result for CCC(C)OC(=O)N1CCCCC1CCO (configuration not stated) ?
-1

====

# Protocol: APR_HepG2_MitoticArrest_24hr: Apredica 24-hour HepG2 Assay for Mitotic Arrest (AID 2282910)
# Protocol conditions: high-content imaging, actives raise or lower the signal
Calls of active or inactive are those of the source. How the source made its calls: active means hit-call score of the fitted dose curve at least 0.9, where 1 is the maximum; inactive means score below 0.9.
Classes to choose from: yes = active, no = inactive

Worked set:
* CCCCOC(=O)C(C)Oc1ccc(Oc2ccc(C(F)(F)F)cn2)cc1 (stereo not given) | no
* OB(O)O | no
* COC(=O)c1cccc(C)c1S(=O)(=O)NC(=O)Nc1nc(OCC(F)(F)F)nc(N(C)C)n1 | no
* COC(=O)c1ccccc1C(=O)O | no
* C#CCOC(=O)[C@@H](C)Oc1ccc(Oc2ncc(Cl)cc2F)cc1 | no

What did this assay record as the result for CCOC(=O)COc1cc(-n2ncc(C(F)(F)F)c(C)c2=O)c(F)cc1Cl ?
no

What did this assay record as the result for O=C(Nc1ccc([N+](=O)[O-])cc1Cl)c1cc(Cl)ccc1O ?
yes

====

# Protocol: BSK_LPS_PGE2: BioMAP Diversity Plus: LPS Assay for Prostaglandin E2 (PGE2) Biomarker Activity (AID 2283082)
# Protocol conditions: primary human HUVEC with PBMC; actives raise or lower the signal
Activity calls are given as the source filed them. The calls were made as follows: active = hit-call score of the fitted dose curve at least 0.9, where 1 is the maximum; inactive = score below 0.9.
Classes to choose from: label 1 for active, label 0 for inactive

* CCCOC(=O)c1ccc(C(=O)OCCC)nc1 | label 0
* CCCCC(CC)COC(=O)c1ccccc1C(=O)O (stereo unspecified) | label 0
* OB(O)O | label 0
* Oc1ccc(C(c2ccc(O)cc2)C(Cl)(Cl)Cl)cc1 | label 1

What did this assay record as the result for CCSC(=O)N(CC(C)C)CC(C)C ?
label 0

What did this assay record as the result for COc1c(Cl)ccc(Cl)c1C(=O)O ?
label 0

What did this assay record as the result for CN(C)C(=O)Nc1ccc(Cl)c(Cl)c1 ?
label 1

What did this assay record as the result for CCNc1nc(N)nc(Cl)n1 ?
label 0

What did this assay record as the result for CCCCOC(=O)[C@@H](C)Oc1ccc(Oc2ccc(C(F)(F)F)cn2)cc1 ?
label 0

What did this assay record as the result for CCOC(=O)c1ccc(O)cc1 ?
label 0

What did this assay record as the result for S=C(S)NCCNC(=S)S.[Mn+2].[S-]C([S-])=NCCN=C([S-])[S-].[Zn+2] ?
label 0

What did this assay record as the result for c1ccc(Nc2ccccc2)cc1 ?
label 1

What did this assay record as the result for CC(C)CCCCCCc1ccc(O)cc1 ?
label 1

What did this assay record as the result for CCC(C)OC(=O)N1CCCCC1CCO (stereo unspecified) ?
label 0

What did this assay record as the result for COC(=O)c1ccc(CNS(C)(=O)=O)cc1S(=O)(=O)NC(=O)Nc1nc(OC)cc(OC)n1 ?
label 0

====

# Experimental system: Peroxisome proliferator-activated receptor gamma (Homo sapiens) (UniProt P37231)
# Sequence (P37231 whole entry, looked up): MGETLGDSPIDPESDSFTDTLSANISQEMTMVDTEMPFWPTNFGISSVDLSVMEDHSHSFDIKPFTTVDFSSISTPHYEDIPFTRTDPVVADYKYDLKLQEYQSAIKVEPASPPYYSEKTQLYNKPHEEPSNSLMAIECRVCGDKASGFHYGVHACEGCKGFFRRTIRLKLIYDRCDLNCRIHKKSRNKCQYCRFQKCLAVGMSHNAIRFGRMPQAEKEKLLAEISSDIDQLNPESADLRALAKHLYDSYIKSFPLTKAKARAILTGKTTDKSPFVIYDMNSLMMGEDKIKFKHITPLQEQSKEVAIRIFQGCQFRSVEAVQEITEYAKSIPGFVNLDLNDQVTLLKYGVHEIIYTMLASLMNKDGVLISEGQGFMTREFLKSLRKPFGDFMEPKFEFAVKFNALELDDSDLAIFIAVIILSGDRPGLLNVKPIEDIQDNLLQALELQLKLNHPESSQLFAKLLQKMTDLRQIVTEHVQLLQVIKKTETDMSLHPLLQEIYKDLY
# Protocol: OT_PPARg_PPARgSRC1_0480: Odyssey Thera (OT) 8-hour Protein-Complementation Assay for Peroxisome Proliferator-activated Receptor Gamma / SRC-1 Co-activator (AID 2283387);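 note: nuclear to cytoplasmic split Venus YFP fluorescence ratio reporting PPARg SRC-1 interaction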
Records with an inconclusive call do not appear. The source made the active and inactive calls. The calls were made as follows: active = hit-call score of the fitted dose curve at least 0.9, where 1 is the maximum; inconclusive = response in the unintended direction; inactive = score below 0.9.
Recorded endpoint: outcome

- O=C(O)C1(C(=O)Nc2ccc(Cl)cc2Cl)CC1: inactive
- COc1c(Cl)ccc(Cl)c1C(=O)O: inactive
- C[C@]12C[C@H](O)[C@H]3[C@@H](CCC4=CC(=O)CC[C@@]43C)[C@@H]1CC[C@@H]2C(=O)CO: inactive
- O=C(O)c1ccccc1: inactive
- c1ccc2[nH]c(-c3cscn3)nc2c1: inactive

Now look at this entry.
# query: outcome of entry O=C(Nc1ccc([N+](=O)[O-])cc1Cl)c1cc(Cl)ccc1O
inactive

====

# Read-out: catalase (CAT), CAT (gene 847)
# Protocol: LTEA_HepaRG_CAT: Life Technologies and Expression Analysis (LTEA) Assay for catalase (CAT) using HepaRG (AID 2283452)
# Protocol conditions: mRNA level, 48 h; actives raise or lower the signal
Activity calls are given as the source filed them. The calls were made as follows: active = hit-call score of the fitted dose curve at least 0.9, where 1 is the maximum; inactive = score below 0.9.
Classes to choose from: active, inactive

Worked set:
• CCCCOC(=O)C(C)Oc1ccc(Oc2ccc(C(F)(F)F)cn2)cc1 (centres undefined) = inactive
• N[C@@H](Cc1cc(I)c(Oc2ccc(O)c(I)c2)c(I)c1)C(=O)O = active
• S=C([S-])NCCNC(=S)[S-].[Mn+2] = active
• CCOC(=O)c1ccc(O)cc1 = inactive
• O=C(Nc1ccc([N+](=O)[O-])cc1Cl)c1cc(Cl)ccc1O = active
• CC1(C)C(C=C(Cl)Cl)C1C(=O)OCc1cccc(Oc2ccccc2)c1 (centres undefined) = inactive
• CN(C)C(=O)Nc1ccc(Cl)c(Cl)c1 = inactive
• CCSC(=O)N(CC(C)C)CC(C)C = inactive

What did this assay record as the result for CCC(C)OC(=O)N1CCCCC1CCO (centres undefined) ?
inactive

====

# Read-out: Pyruvate Dehydrogenase Kinase 4 (PDK4), PDK4 (gene 5166)
# Protocol: LTEA_HepaRG_PDK4: Life Technologies and Expression Analysis (LTEA) Assay for Pyruvate Dehydrogenase Kinase 4 (PDK4) using HepaRG (AID 2283525)
# Protocol conditions: mRNA level, 48 h; actives raise or lower the signal
Calls of active or inactive are those of the source. The calls were made as follows: active = hit-call score of the fitted dose curve at least 0.9, where 1 is the maximum; inactive = score below 0.9.
Recorded endpoint: AC50

Some entries whose results are on file:
- CCCCC(CC)COC(=O)c1ccccc1C(=O)O (stereo not drawn): 79.9 µM (active)
- N#CSCSc1nc2ccccc2s1: 32.9 µM (active)
- CCCN(CCC)C(=O)SCC: inactive
- CCCCCOC(=O)COc1cc(N2C(=O)C3=C(CCCC3)C2=O)c(F)cc1Cl: inactive
- CCOC(=O)c1ccc(O)cc1: inactive
- O=C(c1ccccc1)C1CCCCC1: inactive
- Oc1ccc(C(c2ccc(O)cc2)C(Cl)(Cl)Cl)cc1: inactive
- C#C[C@]1(O)CC[C@H]2[C@@H]3CCC4=CC(=O)CC[C@@H]4[C@H]3CC[C@@]21CC: 0.442 µM (active)

# query: AC50 of entry CC(C)CCCCCCc1ccc(O)cc1
inactive

# query: AC50 of entry CCOC(=O)NCCOc1ccc(Oc2ccccc2)cc1
inactive

# query: AC50 of entry COCCO
inactive

# query: AC50 of entry CCOC(=O)C(C)Oc1ccc(Oc2cnc3cc(Cl)ccc3n2)cc1 (stereo not drawn)
70 µM (active)

# query: AC50 of entry CCCCOC(=O)[C@@H](C)Oc1ccc(Oc2ccc(C(F)(F)F)cn2)cc1
inactive

====

# Protocol: ATG_VDRE_CIS: Attagene CIS-FACTORIAL HepG2 Assay for human Vitamin D Receptor Element (VDRE) (AID 2282968)
# Protocol conditions: HepG2 VDRE cis-reporter transcription, actives raise or lower the signal
Calls of active or inactive are those of the source. Rule for the calls: active = hit-call score of the fitted dose curve at least 0.9, where 1 is the maximum; inactive = score below 0.9.
Classes to choose from: active, inactive

Worked set:
* CC(C)(C)[C@@H](O)[C@@H](Cc1ccc(Cl)cc1)n1cncn1 | active
* CCN(CC)C(=O)c1cccc(C)c1 | inactive
* CCOC(=O)C(C)Oc1ccc(Oc2cnc3cc(Cl)ccc3n2)cc1 (centres undefined) | inactive
* CCCCC(CC)COC(=O)c1ccccc1C(=O)O (centres undefined) | inactive
* c1ccc2[nH]c(-c3cscn3)nc2c1 | inactive
* O=C(O)C1(C(=O)Nc2ccc(Cl)cc2Cl)CC1 | inactive

What did this assay record as the result for N#CSCSc1nc2ccccc2s1 ?
inactive

What did this assay record as the result for C#CCOC(=O)[C@@H](C)Oc1ccc(Oc2ncc(Cl)cc2F)cc1 ?
inactive

What did this assay record as the result for CCCN(CCC)c1c([N+](=O)[O-])cc(C(F)(F)F)c(N)c1[N+](=O)[O-] ?
active

What did this assay record as the result for CCCN(CCC)C(=O)SCC ?
inactive

What did this assay record as the result for COC(=O)c1ccccc1C(=O)O ?
inactive

What did this assay record as the result for COC(=O)c1c(Cl)nn(C)c1S(=O)(=O)NC(=O)Nc1nc(OC)cc(OC)n1 ?
inactive

What did this assay record as the result for CCOC(=O)NCCOc1ccc(Oc2ccccc2)cc1 ?
active

What did this assay record as the result for O=C(O)c1ccccc1 ?
inactive
